Assay: NCI Yeast Anticancer Drug Screen. Data for the mec2-1 strain (AID 157)
Conditions: S. cerevisiae mec2-1 strain, at 50.0 µM, active compounds read high
Compounds without any hit were thinned out: in the full panel of roughly 79,000, 15% have a hit.
RECORDED_ENDPOINT: growth inhibition (%)
Report the value in % with no unit label.

Check out these entries, answers already filled in.
# MOLECULE, UNITS_SYMBOL, growth inhibition
measured = [
    ("COC(=O)N/N=C(\\c1ccc(OC)cc1)C(c1ccc(OC)cc1)C1(O)C(=O)Nc2c(C)cc(Cl)cc21 (stereo not given)", "%", 14.8),
    ("Cc1n(Cc2ccccc2)nc2sc(N)n[n+]12", "%", -9.45),
    ("COc1ccc2ccccc2c1NC(C)=O", "%", 5.95),
    ("S=C1CSc2c(ccc3ccccc23)N1", "%", -14.8),
    ("CCC(=O)c1cccc(-c2ccccc2)c1CC", "%", -7),
]

Summary for this molecule, O=c1[nH]c(=O)n(C2OC(CO)C(O)C2O)cc1OCc1ccccc1 (stereo not given) : growth inhibition is -19.8

Summary for this molecule, Nc1nc2c(ccc3ccccc32)[nH]1 : growth inhibition is 6.8

Summary for this molecule, O=C(CC(c1ccccc1)C1CCCN(c2ccccc2)S1(=O)=O)c1ccccc1 (stereo not given) : growth inhibition is 1.2

Summary for this molecule, COc1ccc(C(O)c2ccc(OC)cc2)cc1 : growth inhibition is -16.6

Summary for this molecule, CC1NC(=O)OC1C(C)(C)C (stereo not given) : growth inhibition is -2.8

Summary for this molecule, O=[N+]([O-])c1ccc(N/N=C2\CCC3CC23)c([N+](=O)[O-])c1 (stereo not given) : growth inhibition is -15.2

Summary for this molecule, Fc1nc(F)nc(-c2c3ccccc3c3n2CCS3)n1 : growth inhibition is 14.1

Summary for this molecule, CCC(CO)(C(=O)O)c1ccccc1 (stereo not given) : growth inhibition is 22.2

----------
Assay: NCI Yeast Anticancer Drug Screen. Data for the sgs1 mgt1 strain (AID 161);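 note: 0% = growth of cultures given vehicle only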
Conditions: S. cerevisiae sgs1 mgt1 strain, at 50.0 µM, active compounds read high
This is part of a sample that, as a whole, favours compounds with a hit. Of some 79,000 tested, about 15% had one in any assay.
The compounds listed here are annotated with their growth inhibition.
Report the value in % with no unit label.

# COMPOUND, UNITS_SYMBOL, growth inhibition
records = [
    ("O=C(CNC(=O)C(CSC(c1ccccc1)(c1ccccc1)c1ccccc1)NC(=O)OCc1ccccc1)OCc1ccccc1[N+](=O)[O-] (configuration not stated)", "%", -4.15),
]

Summary for this compound, CCC(C1=CCCCC1)c1nc2c([nH]1)c(=O)n(C)c(=O)n2C (configuration not stated) : growth inhibition is 23.6

Summary for this compound, C=C(Br)c1ccc2c(c1)OCO2 : growth inhibition is 20.9

Summary for this compound, O=C1NC(=S)N/C1=C\c1cccs1 : growth inhibition is 15.4

Summary for this compound, CC(NC(=O)C(CC(=O)OCc1ccccc1)NC(=O)OCc1ccccc1)c1ccccc1 (configuration not stated) : growth inhibition is 9.15

Summary for this compound, Cc1ccc(NC(=O)Oc2ccc(Br)cc2Br)c([N+](=O)[O-])c1 : growth inhibition is 13.7

----------
Assay: NCI Yeast Anticancer Drug Screen. Data for the sgs1 mgt1 strain (AID 161);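 note: 0% = growth of cultures given vehicle only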
Conditions: S. cerevisiae sgs1 mgt1 strain, at 50.0 µM, active compounds read high
This is part of a sample that, as a whole, favours compounds with a hit. Of some 79,000 tested, about 15% had one in any assay.
RECORDED_ENDPOINT: growth inhibition (%)
Report the value in % with no unit label.

Summary for this molecule, Nc1c(N=Nc2ccc(S(=O)(=O)Nc3cnccn3)cc2)cc(S(=O)(=O)O)c2ccccc12 : growth inhibition is 8.3

Summary for this molecule, CCOc1ccc(NC(=O)C(Br)C(Br)C(=O)O)cc1 (stereo not given) : growth inhibition is 96.8

Summary for this molecule, CN(C)CC1CCCCCCC1=O (stereo not given) : growth inhibition is -8.55

Summary for this molecule, CCOC(=O)c1[nH]c(C)c(C(=O)OC(C)(C)C)c1C : growth inhibition is 0.35

Summary for this molecule, CC1=C(C#N)C(C#N)(C#N)C(NN(C)C)C1 (stereo not given) : growth inhibition is 1.5

Summary for this molecule, CC(=O)N(CN1C(=O)CCC1C(=O)O)c1cccc(O)c1 (stereo not given) : growth inhibition is -10.2

Summary for this molecule, CCCCCC(C/C=N/N(C)C)C(O)(C(F)(F)F)C(F)(F)F (stereo not given) : growth inhibition is -5.15

Summary for this molecule, O=C(Nc1ccccc1C(=O)N/N=C/c1cccc(O)c1)c1ccccc1 : growth inhibition is 12.9

Summary for this molecule, CC1=C(C(=O)Nc2ccccc2C)C(c2ccc(C3C(C(=O)Nc4ccccc4C)=C(C)NC(C)=C3C(=O)Nc3ccccc3C)cc2)C(C(=O)Nc2ccccc2C)=C(C)N1 : growth inhibition is 61.2

Summary for this molecule, O=C(CN1C(=O)c2cccc3c(Br)ccc(c23)C1=O)c1ccc(Cl)cc1 : growth inhibition is 5.85

----------
The molecules listed here are annotated with their growth inhibition.
Assay: NCI Yeast Anticancer Drug Screen. Data for the cln2 rad14 strain (AID 165);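 note: 0% = growth equal to vehicle treated cultures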
Details: S. cerevisiae cln2 rad14 strain, at 50.0 µM, active compounds read high
The panel holds about 79,000 compounds, 15% with a hit somewhere; the sample as a whole holds those more often.
Report the value in % with no unit label.

Check out these entries, answers already filled in.
# MOLECULE, growth inhibition [%]
measured = [
    ("O=c1c2ccccc2nc2sc3nc4ccccc4c(=O)n3n12", -56),
    ("CCOC(=O)Oc1ccc(C(=O)NCCC(C)C)cc1OCC", -69.2),
    ("COc1ccc(/C=C2/CSCC3=C2NC(=S)NC3c2ccc(OC)c(OC)c2OC)c(OC)c1OC (stereo unspecified)", 34.6),
    ("CC(C)c1cccc(C(C)C)c1NC(=O)C(=O)C(C(=O)c1ccccc1-c1ccccc1)C1OC(=O)c2ccccc21 (stereo unspecified)", -49.2),
]

Summary for this molecule, CCC(CC)C(=O)OCCOc1ccccc1 : growth inhibition is -20.2

Summary for this molecule, O=C(O)CSc1ncccc1[N+](=O)[O-] : growth inhibition is 12.9

----------
The molecules listed here are annotated with their growth inhibition.
Test: NCI Yeast Anticancer Drug Screen. Data for the mec2-1 strain (AID 157)
Details: S. cerevisiae mec2-1 strain, at 50.0 µM, active compounds read high
The panel holds about 79,000 compounds, 15% with a hit somewhere; the sample as a whole holds those more often.
Report the value in % with no unit label.

Check out these entries, answers already filled in.
# MOLECULE, MEASUREMENT
records = [
    ("O=[N+]([O-])c1cc2c(cc1Cl)C1C(C3C2C2(Cl)C(Cl)=C(Cl)C3(Cl)C2(Cl)Cl)C2(Cl)C(Cl)=C(Cl)C1(Cl)C2(Cl)Cl (configuration not stated)", 9.6),
    ("CC1=NN(C(=O)CC(=O)Nc2ccccc2Cl)C(=O)C1N=Nc1ccc(C(=O)O)cc1 (configuration not stated)", -6.85),
]

Summary for this molecule, CCOC(=O)C(C)C1CCCc2c(C)ccc(C)c21 (configuration not stated) : growth inhibition is 9.6

Summary for this molecule, NNC(=O)NN1C(=O)c2cc(S(=O)(=O)O)cc3c(N)c(S(=O)(=O)O)cc(c23)C1=O : growth inhibition is -3.05

Summary for this molecule, C#CCC(C)(C)C(N)=O : growth inhibition is -6.85

----------
Assay: NCI Yeast Anticancer Drug Screen. Data for the rad50 strain (AID 155);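 note: 0% = growth of vehicle-only cultures of the same strain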
Conditions: S. cerevisiae rad50 strain growth inhibition; at 50.0 µM; active compounds read high
Compounds without any hit were thinned out: in the full panel of roughly 79,000, 15% have a hit.
The compounds listed here are annotated with their growth inhibition.
Report the value in % with no unit label.

Check out these entries, answers already filled in.
# COMPOUND, MEASUREMENT
rows = [
    ("Cn1c(-c2ccccc2)c2c(=O)oc3ccccc3c2c1-c1ccccc1", -14.6),
    ("CC1CCOC(c2ccc(C(C)C)cc2)O1 (stereo unspecified)", 8.4),
    ("Cc1cc2c(C)nn(Cc3ccccc3Cl)c2c(C#N)c1C", 32.5),
    ("CCCCCC/C(CC(=O)CCC(=O)NCCc1ccccc1)=N\\NC(=O)c1ccc2ccccc2c1O", 25),
    ("Oc1c2c(c3cccc4cccc1c43)=Nc1ccccc1S2", 0.25),
    ("CCCOC(=O)c1cc(C(=CCC[C@H]2CC[C@@]3(C)[C@@H](CC[C@@H]4[C@@H]3CC[C@]3(C)[C@@H](C(C)CCCC(C)C)CC[C@@H]43)C2)c2cc(Cl)c(O)c(C(=O)OCCC)c2)cc(Cl)c1O (stereo partly specified)", 8.7),
    ("O=C(c1ccccc1)C1C(c2ccccc2)SC(c2ccccc2)CC1(O)c1ccccc1 (stereo unspecified)", 24.1),
    ("Nc1nc(-c2ccc([N+](=O)[O-])cc2)cc(-c2cc(-c3ccc([N+](=O)[O-])cc3)nc(N)n2)n1", 5.05),
    ("Clc1ccc(Cl)nc1", -8.25),
    ("Clc1ccc(C(CI)c2ccccc2Cl)cc1 (stereo unspecified)", 10.8),
]

Summary for this compound, CCCCn1c(-c2ccccc2)cs/c1=N\N=C1C=C(C(C)(C)C)C(=O)C(C(C)(C)C)=C1 : growth inhibition is 12.2

Summary for this compound, CC(C)=CCC[C@@H](C)C1[C@@H](OC2OC(CO)C(O)C(O)C2O)CC2(C)[C@@H]3CC(=O)C4C(C)(C)[C@@H](OC5OC(CO)C(O)C(O)C5O)CC[C@@]45C[C@@]35CC[C@]12C (stereo partly specified) : growth inhibition is -17.4

Summary for this compound, Clc1cnc(Oc2ccccc2)c2ccccc12 : growth inhibition is 2.3
